Test method notes: Plasma pharmacokinetics after single 40 mg oral dose (LC-MS/MS, noncompartmental)
Assay type: in vivo, human
Condition parameters: human, po, 40 mg, 40 mg single oral dose, empty stomach, read-out: AUC∞, Mean (SD)
Procedure: On cycle 1 day 1, triplicate ECGs and plasma samples for PK were collected from patients ≤15 minutes prior to dosing and at 15 minutes; 30 minutes; and 1‐, 1.5‐, 2‐, 2.5‐, 3‐, 4‐, 6‐, 8‐, and 10‐hour time points after receiving a single oral dose of 40‐mg sapanisertib. […] Plasma samples were analyzed for sapanisertib using a validated liquid chromatography with tandem mass spectrometry method with deuterated sapanisertib used as the internal standard. […]
Reported property: AUC(0-inf) (ng·h/mL)
Expressed in ng·h/mL, but write only the number.

Provide only the value of recorded AUC(0-inf) for CC(C)n1nc(-c2ccc3oc(N)nc3c2)c2c(N)ncnc21
2990

Provenance of the data: paper PMC7586797
